molecular target: D(2) dopamine receptor (Homo sapiens) (UniProt P14416); experiment: Beta-Arrestin HTS for Positive Allosteric Modulators of the Human D2 Dopamine Receptor: Potentiators; details: DiscoveRx D2 beta-arrestin cells, luminescence, 90 min; stronger effect = higher value; 100% = 57 uM dopamine signal
Sequence (P14416 whole entry, looked up): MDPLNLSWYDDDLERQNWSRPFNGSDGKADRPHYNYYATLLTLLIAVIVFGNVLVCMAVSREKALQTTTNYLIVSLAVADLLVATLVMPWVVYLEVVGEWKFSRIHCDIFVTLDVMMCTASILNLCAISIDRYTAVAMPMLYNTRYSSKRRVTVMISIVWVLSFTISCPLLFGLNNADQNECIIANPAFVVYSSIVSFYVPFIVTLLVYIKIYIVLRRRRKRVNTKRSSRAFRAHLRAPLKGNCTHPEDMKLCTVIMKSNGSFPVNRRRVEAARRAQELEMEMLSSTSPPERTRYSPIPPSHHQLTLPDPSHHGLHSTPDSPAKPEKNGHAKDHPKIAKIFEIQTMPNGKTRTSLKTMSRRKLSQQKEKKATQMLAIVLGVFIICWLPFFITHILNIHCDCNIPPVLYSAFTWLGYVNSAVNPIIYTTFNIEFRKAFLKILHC
Among all 360,000 compounds or so, about 810 (0.23%) were called active. Only a selection was taken, and actives are over-represented in it overall.
Recorded potentiation, one value per entry.
API: value field is a number in %; no unit string.

Solved cases below.
COc1cccc(CNC(=O)Cn2c(=O)oc3cc(S(=O)(=O)N4CCCCC4)ccc32)c1; -3.62
COC(=O)[C@H]1C[C@H](OC(=O)NCc2ccccc2)[C@@]2(O)CN(S(=O)(=O)c3ccc(C)cc3)CC2[C@H]1C(=O)OC (stereo not given in full); -0.0644
CSc1ncnc2c1ncn2CC(=O)C1CCC2C3CCC4=CC(=O)CCC4(C)C3CCC12C (stereo not given); -2.03
Cc1cc([N+](=O)[O-])nn1CC(=O)Nc1ccc(Cc2ccncc2)cc1; -10.7

Next up:
// lookup potentiation for "Nc1ccc(-n2nncc2-c2ccco2)cc1" -3.62
